Source: patent US5686424A

target: UniProtKB P62942; experiment: PPIase Inhibition Assay; assay type: biochemical; details: concentration of inhibitor required for 50% inhibition of enzyme activity; FKBP, substrate Succinyl-Ala-Phe-Pro-Phe-para-nitroanilide; TABLE I
pIC50: −log10 of the molar value. Where a name gives a salt, the structure may show the parent alone.
ASSAY READOUT: pIC50

Some entries whose results are on file:
In [3]: df
Out[3]:
                                   molecule  recorded_measurement
0  CC[C@H](C)[C@H](NC(=O)[C@@H]1CCCN1CC(=O)C1CC2CCC1C2)C(=O)NCc1ccccc1 (stereo partly shown)                > 5.30
1  CC[C@H](C)[C@H](NC(=O)[C@@H]1CCCN1CC(=O)c1cccc(Oc2ccccc2)c1)C(=O)NCc1ccccc1                > 5.30
2  CC[C@H](C)[C@H](NC(=O)[C@@H]1CCCN1CC(=O)C12CC3CC(CC(C3)C1)C2)C(=O)NCc1ccccc1OC                  6.19
3  COc1ccccc1CNC(=O)[C@@H]1CCCN1CC(=O)c1cc(OC)c(OC)c(OC)c1 [Example 134, Hydrochloride]                < 5.30
4  CC[C@H](C)[C@H](NC(=O)[C@@H]1CCCN1CC(=O)OC(CN1CCOCC1)c1ccccc1)C(=O)NCc1ccccc1 (stereo partly shown)                > 5.30

QUERY: What does the data say about its pIC50? Entry: CC[C@H](C)[C@H](NC(=O)[C@@H]1CCCN1CC(=O)NC12CC3CC(CC(C3)C1)C2)C(=O)NCc1ccccc1
RESULT: 4.82

QUERY: What does the data say about its pIC50? Entry: CC[C@H](C)[C@H](NC(=O)[C@@H]1CCCN1CC(=O)c1cccc(OC)c1)C(=O)NCc1ccccc1
RESULT: > 4.30

---

biological target: UniProt:P62942; assay: PPIase Inhibition Assay; type: biochemical; conditions: concentration of inhibitor required for 50% inhibition of enzyme activity; FKBP, substrate Succinyl-Ala-Phe-Pro-Phe-para-nitroanilide; TABLE I
pIC50: −log10 of the molar value. Where a name gives a salt, the structure may show the parent alone.
ASSAY READOUT: pIC50

In [3]: df
Out[3]:
                                   compound  recorded_measurement
0  CC(C)C[C@H](NC(=O)[C@@H]1CCCN1CC(=O)C12CC3CC(CC(C3)C1)C2)C(=O)NCc1ccccc1                  6.66

QUERY: What does the data say about its pIC50? Entry: CC[C@H](C)[C@H](NC(=O)[C@@H]1CCCN1CC(=O)c1c(OC)cc(OC)cc1OC)C(=O)NCc1ccccc1
RESULT: > 5.30

QUERY: What does the data say about its pIC50? Entry: CC[C@H](C)[C@H](NC(=O)[C@@H]1CCCN1CC(=O)c1ccc(OC(=O)c2ccccc2)cc1)C(=O)NCc1ccccc1
RESULT: 5.30

QUERY: What does the data say about its pIC50? Entry: C=CCOC(=O)Nc1ccc(CCCOC(=O)[C@@H]2CCCN2CC(=O)C23CC4CC(CC(C4)C2)C3)cc1 [Example 160, Hydrochloride]
RESULT: < 5.30

QUERY: What does the data say about its pIC50? Entry: COc1cc(C(=O)CN2CCC[C@H]2C(=O)NCc2cccc3ccccc23)cc(OC)c1OC
RESULT: < 5.30

QUERY: What does the data say about its pIC50? Entry: COc1cc(C(=O)CN2CCC[C@H]2C(=O)NC(C)CCc2ccccc2)cc(OC)c1OC (stereo partly shown) [Example 138, Hydrochloride]
RESULT: < 5.30

QUERY: What does the data say about its pIC50? Entry: CC[C@H](C)[C@H](NC(=O)[C@@H]1CCCN1CC(=O)C1(c2ccc(Cl)cc2)CCCCC1)C(=O)NCc1ccccc1
RESULT: > 5.30

---

biological target: UniProtKB P62942; experiment: PPIase Inhibition Assay; assay type: biochemical; settings: concentration of inhibitor required for 50% inhibition of enzyme activity; FKBP, substrate Succinyl-Ala-Phe-Pro-Phe-para-nitroanilide; TABLE I
pIC50: −log10 of the molar value. Counter-ions that a name gives are not always drawn.
Entries and their measured pIC50 follow.

Some entries whose results are on file:
>>> print(df.to_string())
                                   molecule  target_or_test_system  recorded_measurement
0  COc1cc(C(=O)CN2CCCC[C@H]2C(=O)NCC23CC4CC(CC(C4)C2)C3)cc(OC)c1OC [Example 147, Hydrochloride]       UniProtKB P62942                < 5.30
1  CC[C@H](C)[C@H](NC(=O)[C@@H]1CCCN1CC(=O)C12CC3CC(CC1C3)C2)C(=O)NCc1ccccc1       UniProtKB P62942                > 5.30
2  CCOc1cc(C(=O)CN2CCC[C@H]2C(=O)N[C@H](C(=O)NCc2ccccc2)[C@@H](C)CC)cc(OCC)c1OCC       UniProtKB P62942                > 5.30

Attention now shifts to the item below.
QUERY: What does the data say about its pIC50? Entry: CCCC[C@H](NC(=O)[C@@H]1CCCN1CC(=O)C12CC3CC(CC(C3)C1)C2)C(=O)NCc1ccccc1
RESULT: 6.40

---

biological target: FKBP (Homo sapiens, UniProt P62942); experiment: PPIase Inhibition Assay; format: biochemical; conditions: concentration of inhibitor required for 50% inhibition of enzyme activity; FKBP, substrate Succinyl-Ala-Phe-Pro-Phe-para-nitroanilide; TABLE I
Sequence (P62942 whole entry): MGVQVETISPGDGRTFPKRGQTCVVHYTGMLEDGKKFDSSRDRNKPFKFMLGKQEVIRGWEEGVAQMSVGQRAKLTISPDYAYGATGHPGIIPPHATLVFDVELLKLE
Where a name gives a salt, the structure may show the parent alone.
ASSAY READOUT: IC50

Some entries whose results are on file:
>>> print(df.to_string())
                                   molecule  recorded_measurement
0  C=CCOC(=O)Nc1ccc(CCCOC(=O)[C@@H]2CCCCN2CC(=O)c2cc(OC)c(OC)c(OC)c2)cc1 [Example 159, Hydrochloride]                > 5 µM
1  CC[C@H](C)[C@H](NC(=O)[C@@H]1CCCN1CC(=O)O[C@H](c1ccccc1)C(C)C)C(=O)NCc1ccccc1                0.6 µM
2  O=C(CN1CCC[C@H]1C(=O)N[C@H](C(=O)NCc1ccccc1)c1ccccc1)c1ccccc1               < 50 µM

QUERY: What does the data say about its IC50? Entry: C=CCOC(=O)Nc1ccc(CCNC(=O)[C@@H]2CCCN2CC(=O)c2cc(OC)c(OC)c(OC)c2)cc1
RESULT: > 5 µM

QUERY: What does the data say about its IC50? Entry: CC[C@H](C)[C@H](NC(=O)[C@@H]1CCCN1CC(=O)C12CC3CC(CC(C3)C1)C2)C(=O)N[C@@H](C)c1ccccc1
RESULT: 0.1 µM

QUERY: What does the data say about its IC50? Entry: CC[C@H](C)[C@H](NC(=O)[C@@H]1CCCN1CC(=O)c1ccccc1[N+](=O)[O-])C(=O)NCc1ccccc1
RESULT: < 50 µM

QUERY: What does the data say about its IC50? Entry: CC[C@H](C)[C@H](NC(=O)[C@@H]1CCCN1CC(=O)NC1C2CC3CC(C2)CC1C3)C(=O)NCc1ccccc1 (stereo partly shown)
RESULT: < 5 µM

QUERY: What does the data say about its IC50? Entry: CC[C@H](C)[C@H](NC(=O)[C@@H]1CCCN1CC(=O)NCC12CC3CC(CC(C3)C1)C2)C(=O)NCc1ccccc1
RESULT: < 5 µM

---

Entries and their measured IC50 follow.
target: FKBP (Homo sapiens, UniProt P62942); test: PPIase Inhibition Assay; format: biochemical; details: concentration of inhibitor required for 50% inhibition of enzyme activity; FKBP, substrate Succinyl-Ala-Phe-Pro-Phe-para-nitroanilide; TABLE I
Counter-ions that a name gives are not always drawn.

Some entries whose results are on file:
In [3]: df
Out[3]:
                                   molecule  recorded_measurement
0  CC[C@H](C)[C@H](NC(=O)[C@@H]1CCCN1CC(=O)NCc1ccccc1)C(=O)NCc1ccccc1 [Example 80]                > 5 µM
1  C=CCOC(=O)Nc1ccc(CCCOC(=O)[C@@H]2CCCN2CC(=O)c2cc(OC)c(OC)c(OC)c2)cc1 [Example 126, Hydrochloride]                > 5 µM
2  CC[C@H](C)[C@H](NC(=O)[C@@H]1CCCN1CC(=O)c1ccc(OC)cc1)C(=O)NCc1ccccc1 [Example 15]               < 50 µM

Attention now shifts to the item below.
QUERY: Under FKBP (Homo sapiens, UniProt P62942): IC50 value of CC[C@H](C)[C@H](NC(=O)[C@@H]1CCCN1CC(=O)c1ccc2c(c1)OCO2)C(=O)NCc1ccccc1 [Example 107] ?
RESULT: < 5 µM
